Source listed as PubChem BioAssay AID1963970.

tested on: 931267-113-T-J1-PDC multicell spheroid viability; assay: Anticancer human tumor 931267-113-T-J1-PDC patient-derived colon adenocarcinoma cell line growth inhibition [PI3K]; settings: second compound 0.1 µM; first compound 0.00316 µM; hits give low values;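 also: viability read 7 days after compound addition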
# viability, T/C values compiled below
Reply with just the number (in %).

See these solved cases before continuing.
Cn1ncnc1[C@H]1c2n[nH]c(=O)c3cc(F)cc(c23)N[C@@H]1c1ccc(F)cc1 + CC(Nc1ccc2c(c1)OCCn1cc(N3C(=O)OCC3C(F)F)nc1-2)C(N)=O | 86.1
CCN1CCN(Cc2ccc(Nc3ncc(F)c(-c4cc(F)c5nc(C)n(C(C)C)c5c4)n3)nc2)CC1 + COc1c(OCCCN2CCOCC2)ccc2c3n(c(=NC(=O)c4cnc(N)nc4)nc12)CCN3 | 66.3
CC(C)n1nc(-c2ccc3oc(N)nc3c2)c2c(N)ncnc21 + Cc1nc(NC(=O)N2CCCC2C(N)=O)sc1-c1ccnc(C(C)(C)C(F)(F)F)c1 | 89.9
CC(C)n1nc(-c2ccc3oc(N)nc3c2)c2c(N)ncnc21 + CC(Nc1ccc2c(c1)OCCn1cc(N3C(=O)OCC3C(F)F)nc1-2)C(N)=O | 93
CCN1CCN(Cc2ccc(Nc3ncc(F)c(-c4cc(F)c5nc(C)n(C(C)C)c5c4)n3)nc2)CC1 + CC(Nc1ccc2c(c1)OCCn1cc(N3C(=O)OCC3C(F)F)nc1-2)C(N)=O | 92.8
CC(=O)c1c(C)c2cnc(Nc3ccc(N4CCNCC4)cn3)nc2n(C2CCCC2)c1=O + COc1c(OCCCN2CCOCC2)ccc2c3n(c(=NC(=O)c4cnc(N)nc4)nc12)CCN3 | 66.2

Consider the compound Cn1ncnc1[C@H]1c2n[nH]c(=O)c3cc(F)cc(c23)N[C@@H]1c1ccc(F)cc1 + Cc1nc(NC(=O)N2CCCC2C(N)=O)sc1-c1ccnc(C(C)(C)C(F)(F)F)c1 and give its measured viability, T/C.
107

Consider the compound Cn1ncnc1[C@H]1c2n[nH]c(=O)c3cc(F)cc(c23)N[C@@H]1c1ccc(F)cc1 + COc1c(OCCCN2CCOCC2)ccc2c3n(c(=NC(=O)c4cnc(N)nc4)nc12)CCN3 and give its measured viability, T/C.
70.7
